Where do the numbers come from? From patent US7485618B2.

# MEASURED_ON: FGF-5 (Homo sapiens, UniProt P12034)
# Construct: host or cells: FGF-5 added exogenously to NR6R-3T3 murine fibroblasts
# Sequence (P12034 21-268): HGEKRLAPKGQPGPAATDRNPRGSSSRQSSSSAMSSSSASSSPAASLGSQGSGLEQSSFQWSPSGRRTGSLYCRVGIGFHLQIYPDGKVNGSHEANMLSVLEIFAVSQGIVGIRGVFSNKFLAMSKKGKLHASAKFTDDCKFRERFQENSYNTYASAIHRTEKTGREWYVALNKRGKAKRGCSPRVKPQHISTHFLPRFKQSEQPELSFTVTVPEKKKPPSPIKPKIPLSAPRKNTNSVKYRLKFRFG
# PROTOCOL_DETAILS: BLA binding assay on FGF-5 coated plates, nitrocefin readout
# CONDITIONS_USED: purified peptide-BLA fusions at 0.1 nM, bound to FGF-5
TEST_READOUT: Percent Bound at 0.1 nM (%)
Numbers only, in %.

These solved cases illustrate the format of a correct answer.
seq_string="CHYLLTNYC (synthesized FGF-5 binding peptide) [2H9, tested as BLA fusion]" measurement=5
seq_string="CRIHLAHKC (synthesized FGF-5 binding peptide) [2H10, tested as BLA fusion]" measurement=8

Below are some sequences; for each one, tell me its Percent Bound at 0.1 nM.
1. CLTVLWTTC (synthesized FGF-5 binding peptide) [2E2, tested as BLA and BBI/BCE fusions]
2. CEEIWTMLC (synthesized FGF-5 binding peptide) [1A6, tested as BLA and BBI/BCE fusions]

output:
[7, 8]
